# Test system: IGROV-1 ovarian carcinoma cells
# Assay info: Antiproliferative activity, SRB assay
# Format: cell-based, human
# Experimental context: IGROV-1; SRB assay, 24 h treatment, 72 h recovery
Measurement kind: IC50

[
  {
    "Molecule": "[NH2][Pt]([NH2])([Cl])[Cl] [CDDP, Cisplatin, reference compound]",
    "Test system": "IGROV-1 ovarian carcinoma cells",
    "IC50": "20 µM"
  },
  {
    "Molecule": "Cc1ccc(C(C)C)cc1.O=C1C[NH][Ru]([Cl])[O]1 [Ru-Gly, [(p-cymene)Ru(Gly)Cl]]",
    "Test system": "IGROV-1 ovarian carcinoma cells",
    "IC50": "> 200 µM"
  }
]

Okay, now this molecule:
What does the record list as IC50 for Cc1ccc(C(C)C)cc1.O=C1C[NH][Os]([Cl])[O]1 [Os-Gly, [(p-cymene)Os(Gly)Cl]] ?
> 200 µM
